Reference source for all entries: patent US7622469B2

test system: E. coli NIHJ JC-2; assay: Antibacterial activity test (MIC); format: cell-based; conditions: Mueller-Hinton Broth, 37° C., 20 to 24 hours
Answer each item with its documented minimal inhibitory concentration (MIC).

Missing value: minimal inhibitory concentration (MIC), E. coli NIHJ JC-2, entry CCCCCCCCC1N=C(N)N=C(N)N1c1cc(C(C)(C)C)ccc1OC.Cl (centres unmarked) . Fill in? 50 µg/mL

Missing value: minimal inhibitory concentration (MIC), E. coli NIHJ JC-2, entry CC(=O)O.CCCCCCCCNC1=NC(C)(C)N=C(NCCCCCCCC)N1 . Fill in? 100 µg/mL

Missing value: minimal inhibitory concentration (MIC), E. coli NIHJ JC-2, entry CCCCCCCCCCCC1(C)N=C(N)NC(NCc2ccccc2)=N1.Cl (racemic) . Fill in? 12.5 µg/mL

Missing value: minimal inhibitory concentration (MIC), E. coli NIHJ JC-2, entry CCCCCCCCCC1N=C(N)NC(Nc2ccc(OC(F)(F)F)cc2)=N1.Cl (centres unmarked) . Fill in? >100 µg/mL

Missing value: minimal inhibitory concentration (MIC), E. coli NIHJ JC-2, entry CCCCCCCCCCCCCCNC1=NC(C)(C)N=C(N)N1.Cl . Fill in? 25 µg/mL

Missing value: minimal inhibitory concentration (MIC), E. coli NIHJ JC-2, entry CCCCCCCCCCCC1N=C(N)NC(NCc2ccccc2)=N1.Cl (racemic) . Fill in? 6.3 µg/mL

Missing value: minimal inhibitory concentration (MIC), E. coli NIHJ JC-2, entry CCCCCCCCCCNC1=NC(C)(C)N=C(NCCc2ccccc2)N1.O=C(O)CC(=O)O . Fill in? 12.5 µg/mL

Missing value: minimal inhibitory concentration (MIC), E. coli NIHJ JC-2, entry CCCCCCCCCCC1N=C(N)N=C(N)N1Cc1ccc(C(F)(F)F)cc1.Cl (racemic) . Fill in? 6.3 µg/mL

Missing value: minimal inhibitory concentration (MIC), E. coli NIHJ JC-2, entry CCCCCCCCCCCNC1=NC(C)(C)N=C(NCc2ccc(O)cc2)N1.Cl . Fill in? 100 µg/mL

Missing value: minimal inhibitory concentration (MIC), E. coli NIHJ JC-2, entry CCCCCCCCCCCC1N=C(N)N=C(N)N1c1ccc(F)cc1F.Cl (racemic) . Fill in? 25 µg/mL

Missing value: minimal inhibitory concentration (MIC), E. coli NIHJ JC-2, entry CCCCCCCCCCC1N=C(N)NC(NCc2ccc(C(F)(F)F)cc2)=N1.Cl (racemic) . Fill in? 6.3 µg/mL

Missing value: minimal inhibitory concentration (MIC), E. coli NIHJ JC-2, entry CCCCCCCCCCCCC1N=C(N)N=C(N)N1Cc1ccc(OC)cc1.Cl (racemic) . Fill in? 25 µg/mL

Missing value: minimal inhibitory concentration (MIC), E. coli NIHJ JC-2, entry CC(=O)O.CCCCCCCNC1=NC(C)(C)N=C(NCCCCCCC)N1 . Fill in? 12.5 µg/mL

Missing value: minimal inhibitory concentration (MIC), E. coli NIHJ JC-2, entry N=C(NCCCCCCNC(=N)NC(=N)Nc1ccc(Cl)cc1)NC(=N)Nc1ccc(Cl)cc1.O=C(O)[C@H](O)[C@@H](O)[C@H](O)[C@H](O)CO.O=C(O)[C@H](O)[C@@H](O)[C@H](O)[C@H](O)CO [Control drug, chlorhexidine gluconate, reference compound] . Fill in? 1.6 µg/mL

Missing value: minimal inhibitory concentration (MIC), E. coli NIHJ JC-2, entry CC(=O)O.CCCCCCCNC1=NC(C)(C)N=C(NCc2ccc(C)cc2)N1 . Fill in? 25 µg/mL

Missing value: minimal inhibitory concentration (MIC), E. coli NIHJ JC-2, entry CCCCCCCCNC1=NC(C)(C)N(Cc2ccc(Cl)c(Cl)c2)C(N)=N1.Cl . Fill in? 50 µg/mL

Missing value: minimal inhibitory concentration (MIC), E. coli NIHJ JC-2, entry CCCCCCCCCCCCC1N=C(N)NC(NCc2ccccc2)=N1.Cl (racemic) . Fill in? 1.6 µg/mL

====

tested on: P. aeruginosa KM 97-5; assay: Bactericidal activity test (MBC, phenol coefficient measuring method); assay type: cell-based; details: 5 min
READOUT_TYPE: minimal bactericidal concentration (MBC)
In your response, put the unit directly after the numeric value.

Missing value: minimal bactericidal concentration (MBC), P. aeruginosa KM 97-5, entry N=C(NCCCCCCNC(=N)NC(=N)Nc1ccc(Cl)cc1)NC(=N)Nc1ccc(Cl)cc1.O=C(O)[C@H](O)[C@@H](O)[C@H](O)[C@H](O)CO.O=C(O)[C@H](O)[C@@H](O)[C@H](O)[C@H](O)CO [Control drug, chlorhexidine gluconate, reference compound] . Fill in? 8 µg/mL

Missing value: minimal bactericidal concentration (MBC), P. aeruginosa KM 97-5, entry CC(=O)O.CCCCCCCCNC1=NC(C)(C)N=C(NCc2ccc(C)cc2)N1 . Fill in? 3.1 µg/mL

Missing value: minimal bactericidal concentration (MBC), P. aeruginosa KM 97-5, entry CC(=O)O.CCCCCCCCCNC1=NC(C)(C)N=C(NCc2ccccc2)N1 . Fill in? 3.1 µg/mL

Missing value: minimal bactericidal concentration (MBC), P. aeruginosa KM 97-5, entry CC(=O)O.CCCCCCCCNC1=NC(C)(C)N=C(NCCCCCC)N1 . Fill in? 6.3 µg/mL

====

test system: MRSA 97-115; experiment: Antibacterial activity test (MIC); type: cell-based, methicillin-resistant Staphylococcus aureus; conditions: Mueller-Hinton Broth, 37° C., 20 to 24 hours
Answer each item with its documented minimal inhibitory concentration (MIC).
Answer in µg/mL, number only, no unit symbol.

Form field: reported minimal inhibitory concentration (MIC) of CC(=O)O.CCCCCCCCNC1=NC(C)(C)N=C(NCc2ccc(C)cc2)N1 0.4

Form field: reported minimal inhibitory concentration (MIC) of CCCCCCCNC1=NC(CC)(CC)N=C(NCc2ccccc2)N1.Cl 3.1

Form field: reported minimal inhibitory concentration (MIC) of CCCCCCCCCC1N=C(N)N=C(N)N1c1ccc(C(C)(C)C)cc1.Cl (stereo not drawn) 0.8

Form field: reported minimal inhibitory concentration (MIC) of CCCCCCCCCCC1N=C(N)N=C(N)N1c1ccc(F)cc1F.Cl (stereo not drawn) 3.1

Form field: reported minimal inhibitory concentration (MIC) of CCCCCCCCCCC1N=C(N)N=C(N)N1Cc1ccc(C(F)(F)F)cc1.Cl (racemic) 1.6

Form field: reported minimal inhibitory concentration (MIC) of CCCCCCCCCCCCC1N=C(N)N=C(N)N1Cc1ccc(OC)cc1.Cl (racemic) 1.6

Form field: reported minimal inhibitory concentration (MIC) of CCCCCCCCCCNC1=NC(C)(C)N=C(NCc2ccccc2)N1.CS(=O)(=O)O 0.8

Form field: reported minimal inhibitory concentration (MIC) of CC(=O)O.CCCCCCCCNC1=NC(C)(C)N=C(Nc2cnc3ccccc3c2)N1 1.6

Form field: reported minimal inhibitory concentration (MIC) of CCCCCCCCNC1=NC(C)(C)N=C(NCc2ccc(O)cc2)N1.Cl 3.1

====

tested on: E. coli NIHJ JC-2; assay: Antibacterial activity test (MIC); type: cell-based; conditions: Mueller-Hinton Broth, 37° C., 20 to 24 hours
READOUT_TYPE: minimal inhibitory concentration (MIC) (µg/mL)
Answer in µg/mL, number only, no unit symbol.

Form field: reported minimal inhibitory concentration (MIC) of CCCCCCCCCCCNC1=NC(C)(C)N=C(NCCc2ccc(OC)cc2)N1.Cl 57

Form field: reported minimal inhibitory concentration (MIC) of CC(=O)O.CCCCCCCCCNC1=NC(C)(C)N=C(NCc2ccccc2)N1 12.5

Form field: reported minimal inhibitory concentration (MIC) of CCCCCCCCCCC1N=C(N)NC(Nc2ccc(F)c(F)c2F)=N1.Cl (stereo not drawn) 25

Form field: reported minimal inhibitory concentration (MIC) of CC(=O)O.CCCCCCCCCNC1=NC(C)(C)N=C(Nc2ccccc2)N1 12.5

Form field: reported minimal inhibitory concentration (MIC) of CCCCCCCCCCNC1=NC(C)(C)N=C(NCCc2ccc(OC)cc2)N1.Cl 50

Form field: reported minimal inhibitory concentration (MIC) of CCCCCCCNC1=NC(CC)(CC)N=C(NCc2ccccc2)N1.Cl 50

Form field: reported minimal inhibitory concentration (MIC) of CCCCCCCCNC1=NC(C)(C)N=C(NCc2ccc(Cl)c(Cl)c2)N1.Cl 25

Form field: reported minimal inhibitory concentration (MIC) of CCCCCCCCCCNC1=NC(C)(C)N=C(NCc2ccc(O)cc2)N1.Cl 12.5

Form field: reported minimal inhibitory concentration (MIC) of CCCCCCCCC1N=C(N)N=C(N)N1c1ccc(C(C)(C)C)cc1.Cl (stereo not drawn) 25

Form field: reported minimal inhibitory concentration (MIC) of CCCCCCCCCCCCC1N=C(N)NC(NCCc2ccc(OC)cc2)=N1.Cl (racemic) 25

Form field: reported minimal inhibitory concentration (MIC) of CC(=O)O.CCCCCCCCNC1=NC(C)(C)N=C(NCc2ccc(C)cc2)N1 12.5

Form field: reported minimal inhibitory concentration (MIC) of CCCCCCCCNC1=NC(C)(C)N(c2cnc3ccccc3c2)C(N)=N1.Cl.Cl 12.5

Form field: reported minimal inhibitory concentration (MIC) of Br.CCCCCCCCCNC1=NC(C)(C)N=C(NCc2ccccc2)N1 12.5

Form field: reported minimal inhibitory concentration (MIC) of CCCCCCCCCCC1N=C(N)N=C(N)N1c1ccc(F)c(F)c1F.Cl (stereo not drawn) 12.5

Form field: reported minimal inhibitory concentration (MIC) of CCCCCCCCCCCNC1=NC(C)(C)N=C(NCc2ccccc2)N1.O=C(O)C(=O)O 50

Form field: reported minimal inhibitory concentration (MIC) of CC(=O)O.CCCCCCCCCCCCNC1=NC(C)(C)N=C(NCC)N1 12.5
